Entries and their T-C
tested on: Mus musculus; test: In vivo Mean survival time of Plasmodium berghei parasitized mice dosed at 40 mg/kg; format: functional
METRIC: T-C (days)

COMPOUND: COc1ccc2c(c1OC)CN1CCc3cc4c(cc3C1=C2)OCO4 [DIHYDROBERBERINE]
METRIC: T-C
DATA VALUE: -0.2

COMPOUND: COc1ccc2c(OC)c3[n+](cc2c1OC)CCc1cc2c(cc1-3)OCO2
METRIC: T-C
DATA VALUE: -0.2

COMPOUND: COc1ccc2c(c1OC)C[N+]1([O-])CCc3cc4c(cc3C1C2)OCO4 (configuration not stated)
METRIC: T-C
DATA VALUE: 0

COMPOUND: COc1ccc2cc3n(c(=O)c2c1OC)CCc1cc2c(cc1-3)OCO2
METRIC: T-C
DATA VALUE: 0.1

COMPOUND: COc1ccc2c(c1OC)CN1CCc3cc4c(cc3[C@@H]1C2)OCO4
METRIC: T-C
DATA VALUE: 0.1

COMPOUND: COc1cc2c(cc1OC)-c1cc3ccc(OC)c(OC)c3c[n+]1CC2.[Cl-] [PALMATINE CHLORIDE]
METRIC: T-C
DATA VALUE: 0.5

COMPOUND: COc1ccc2cc3[n+](cc2c1OC)CCc1cc2c(cc1-3)OCO2.[Cl-] [BERBERINE CHLORIDE]
METRIC: T-C
DATA VALUE: 0.6

Reference for the values: ChEMBL document CHEMBL1124122
